Attribute: CLhep predicted at 1 µM
protocol-text: Clearance in human liver microsomes at 1 uM up to 60 mins by LC-MS/MS analysis
Format: ADME
Report the value in mL/min/kg with no unit label.

molecule: Cc1c(S(=O)(=O)c2ccc(NC(=O)[C@@H]3C[C@H]3c3cccnc3)cc2)cnn1C(C)C (racemic)
CLhep predicted at 1 µM [mL/min/kg]: 19

molecule: O=C(Nc1ccc(S(=O)(=O)c2ccccc2)cc1)[C@@H]1C[C@H]1c1cccnc1 (single isomer, unassigned; enantiomer 2)
CLhep predicted at 1 µM [mL/min/kg]: 7

# query: CLhep predicted at 1 µM of entry CC(C)n1cc(S(=O)(=O)c2ccc(NC(=O)[C@@H]3C[C@H]3c3cccnc3)cc2)cn1
12

# query: CLhep predicted at 1 µM of entry O=C(Nc1ccc(S(=O)(=O)c2cnn(CC(F)(F)F)c2)cc1)[C@@H]1C[C@H]1c1cccnc1 (racemic)
8

# query: CLhep predicted at 1 µM of entry CCn1cc(S(=O)(=O)c2ccc(NC(=O)[C@@H]3C[C@H]3c3cccnc3)cc2)cn1 (racemic)
8
